B1: TRIM55 (parent)
chain: FQASNPYLPTRGGTTMASGGRFRC

Variants of: B1
testProtocol: protein stability index of a GFP-peptide fusion (GPS, HEK-293T) (PSI 1-6); higher = more stable;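 also: lentivirally expressed fusions sorted by FACS into six bins by GFP to DsRed ratio, PSI derived from sequencing read proportions per bin multiplied by bin number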
conditionSummary: c terminus: a fixed tail appended
Could you please report measured protein stability index for the items listed next?
Numbers only.

>>> df
                          residues  measuredresult
0  FQASNPYLPTRGGTTMASGGVFRC [R21V]            1.42
1  FQASNPYLPTRGGTTMASDGRFRC [G19D]            2.06
2   FQASNPYLGTRGGTTMASGGRFRC [P9G]            1.63

Record protein stability index per entry; entries follow.
1. FQASNPYLPTRGGTTMAIGGRFRC [S18I]
2. FQASNDYLPTRGGTTMASGGRFRC [P6D]

a:
1: 1.48; 2: 2.07

Record protein stability index per entry; entries follow.
1. FQASNPYLPTRGGTTMFSGGRFRC [A17F]
2. FQASNPYLPTRGGTDMASGGRFRC [T15D]
3. FQASNPYLPTRGGTTMAQGGRFRC [S18Q]
4. FQASNPYLPTRGGTTMASSGRFRC [G19S]
5. FQASNPYLPTREGTTMASGGRFRC [G12E]
6. FQCSNPYLPTRGGTTMASGGRFRC [A3C]

a:
1: 1.88; 2: 1.75; 3: 2.07; 4: 1.83; 5: 1.55; 6: 1.32

Record protein stability index per entry; entries follow.
1. FQASNPYLVTRGGTTMASGGRFRC [P9V]
2. FQASNPYLPTRGGTTMASGWRFRC [G20W]

a:
2.2
2.07

Record protein stability index per entry; entries follow.
1. FQASNPYLPTRGGTTMASGIRFRC [G20I]
2. FQAYNPYLPTRGGTTMASGGRFRC [S4Y]
3. FYASNPYLPTRGGTTMASGGRFRC [Q2Y]
4. FQTSNPYLPTRGGTTMASGGRFRC [A3T]
5. FQASNPYFPTRGGTTMASGGRFRC [L8F]
6. FQASNPYLPTRGGTRMASGGRFRC [T15R]

a:
[1.73, 2.12, 2.2, 1.54, 1.63, 2.93]
